Reported TGI by item:
# Tested on: 786-0 renal
# test.description: NCI tumour cell line growth inhibition, 48 h
quantity.measured: TGI

compound	quantity.measured	observed.result
COC(=O)C(=O)C(C#N)c1nc2ccccc2s1 (centres undefined)	TGI	> 100 µM
C[C@@H]1C(=O)CC2C(C)(C)CCC[C@]2(C)[C@@]12CC[C@]1(C=COC1)O2 (some centres undefined)	TGI	> 100 µM
CC1=C(O)C(=O)C=C2C1=CC=C1[C@@]2(C)CC[C@@]2(C)C3C[C@@H](C)C(=O)[C@@H](O)[C@]3(C)CC[C@]12C (some centres undefined)	TGI	2.36 µM
C[C@@H]1CN2[C@H]3[C@@H]1CC[C@]31CCC(=O)O[C@]1(C)[C@H]1CC[C@H]3CCC=C3[C@@H]12	TGI	> 30 µM

----------
# Tested on: UACC-257 melanoma
# test.description: NCI tumour cell line growth inhibition, 48 h; in the data active means GI50 below about 0.43 µM; inactive means the rest
Labels: t = active, f = inactive

input.smiles	measured.target	class.label
CCOc1ccc(N(C)c2ccc(/C=C/C3=[N+](C)c4ccccc4C3(C)C)cc2)cc1	UACC-257 melanoma	t
C/C(=C\C(=O)O[C@H]1[C@@H]2[C@H](C)CC[C@H]2[C@]2(C)O[C@@]1(C1CCCCC1)C[C@H]2OC(=O)CO)c1ccccc1	UACC-257 melanoma	f
O=C(NCc1cn(Cc2cccc(Oc3ccccc3)c2)nn1)c1cccnc1Nc1ccc(F)cc1	UACC-257 melanoma	f
O=[N+]([O-])c1ccc(C2=NCCO2)cc1	UACC-257 melanoma	f
Cc1c(Cl)cccc1C(=O)Nc1nc2c(s1)CN(C(=O)Nc1cccc(C(F)(F)F)c1)CC2	UACC-257 melanoma	f
CCC(=C(c1ccc(OCCN2CCCCC2)cc1)c1ccc(OCCN2CCCCC2)cc1)c1ccc(Cl)cc1	UACC-257 melanoma	f
O=C1NN2CC(c3ccccc3)=NN=C2c2ccccc21	UACC-257 melanoma	f
Cc1cccc2cc(/C=C/C(=O)/C=C/c3ccc(Cl)cc3)c(=O)[nH]c12	UACC-257 melanoma	f
COc1cc2c(c3oc(-c4ccc(O)cc4)c(O)c(=O)c13)CCC(C)(C)O2	UACC-257 melanoma	t

----------
# System: SK-MEL-5 melanoma
# test.description: NCI tumour cell line growth inhibition, 48 h; in the data active means GI50 below about 0.43 µM; inactive means the rest
Possible outcomes: active, inactive

molecule	class.label
ClC1=C(Cl)C(Cl)(C2(Cl)C(Cl)=C(Cl)C(Cl)=C2Cl)C(Cl)=C1Cl	inactive
C=CCC1(O)c2ccccc2C(=O)c2c(OCC(=O)OCC)ccc(OCC(=O)OCC)c21 (stereo not given)	inactive
COc1ccc(C2=NN(C(N)=S)C(c3ccc4c(c3)OCO4)C2)cc1 (stereo not given)	inactive
N#CC1=C(N)Oc2c(sc3c(Br)cccc23)C1c1ccc([N+](=O)[O-])cc1 (stereo not given)	active
Sc1cccc2cccnc12	inactive
COc1cc2cc(NCc3cccc(Cl)c3)nc(C)c2cc1OC	inactive
COc1ccc(-c2nc3sc(-c4cc(OC)c(OC)c(OC)c4)nn3c2/C=C2/C(=O)Nc3ccc(F)cc32)cc1	inactive
O=c1nc2n(-c3cccc(Cl)c3)c3ccc([N+](=O)[O-])cc3cc-2c(=O)[nH]1	inactive
O=C(NCc1cn(Cc2cccc(Oc3ccccc3)c2)nn1)c1cccnc1Nc1ccc(F)cc1	inactive
O=C(O)c1ccc(N(/C=C/C(=O)C(F)(F)F)Cc2ccc(Cl)cc2)cc1	inactive
